assayInfo: Pharmacokinetics and bioavailability of Compound I-2 in rats (plasma Compound IV-1 by LC-MS/MS)
Type: in vivo, rat
runParameters: male, SD, rat, plasma, iv, 2.7 mg/kg, intravenous injection 8 μmol/kg (2.7 mg/kg), mean of 3, read-out: CLtot of Compound IV-1, Mean (converted)
quantityName: clearance (mL/min/kg)

compound	assayValue
COC(=O)[C@H](c1ccccc1Cl)N1CCC2SC(=O)C=C2C1 (stereo partly shown)	170

====

assayInfo: Pharmacokinetics and bioavailability of Compound I-2 in rats (plasma Compound IV-1 by LC-MS/MS)
Format: in vivo, rat
runParameters: male, SD, rat, plasma, iv, 2.7 mg/kg, intravenous injection 8 μmol/kg (2.7 mg/kg), individual animal, read-out: AUC0-t of Compound IV-1, single animals
quantityName: AUC(0-t) (µg·h/mL)

molecule	assayValue
COC(=O)[C@H](c1ccccc1Cl)N1CCC2SC(=O)C=C2C1 (stereo partly shown) [IV-1]	0.266

Values compiled from patent US8772489B2.
